- Test system: UACC-62 melanoma
- METHOD_DESCRIPTION: NCI-60 one-dose screen, 48 h
- CONDITIONS: 10 µM unless noted
About 83,000 compounds went through this panel and 20% of them were active in at least one assay; those are over-represented in the sample as a whole. The source made the active and inactive calls. Rule for the calls: active = growth percent below 10; inactive = the rest.
Pick from active, inactive when you respond.

Please review the entries below; each comes with its answer.
1. CC(C)C[C@@H]1N[C@@]2(C(=O)Nc3ccccc32)[C@@H](c2ccc(F)cc2)[C@@H]1C(=O)c1ccc(O)cc1 :: inactive
2. NC(N)=Nc1ccc(Nc2cccc(Nc3ccc(Cl)c(C(F)(F)F)c3)c2)cn1 :: inactive

Could you please tell me the result logged for CC(C)(C)c1ccc(C(=O)Nc2sc3c(c2C(N)=O)CCC(O)C3)cc1 (stereo not drawn) in this assay?
inactive

Lab log entry: `N#Cc1cnc2ccc(-c3cnc4[nH]ncc4c3)cc2c1N1CCc2cc(F)c(Cl)cc21` — outcome as called in the assay?
active

Answer briefly: the call reported for `O=C(c1ccc(O)c(C(=O)N2Cc3ccc(OCCC[P+](c4ccccc4)(c4ccccc4)c4ccccc4)cc3C2)c1)N1Cc2cccc(F)c2C1` in this assay.
inactive

What is the recorded call for this compound in the test? `NS(=O)(=O)c1ccc(Nc2cc(-c3ccccc3)nc(SCC(=O)c3ccccc3)n2)cc1`
inactive

Which result was noted for this compound in the test: `O=C(Nc1ccc2c(ccn2Cc2ccccn2)c1)c1cnccn1`
inactive

For COc1cc2nc(Cl)nc(Nc3cccc(C4=Nc5c(N)nc(N)nc5NC(c5ccc6c(c5)OCO6)C4)c3)c2cc1OC (stereo not drawn) , which call appears in the assay record?
inactive

I would be grateful if you could indicate the recorded call for `COc1ccc2c(c1)c(CC(=O)[Se]CC#N)c(C)n2C(=O)c1ccc(Cl)cc1` .
inactive

Could you kindly confirm the outcome this assay logged for `NC(=O)c1c(NC(=O)c2ccccc2C(F)(F)F)sc2c1CCC(=O)C2` ?
inactive

Test call, this compound: `NS(=O)(=O)c1ccc(Nc2nc(N/N=C/c3c[nH]c4ccccc34)nc(Nc3ccccc3)n2)cc1`
inactive

Write down the call the test reported for this compound. Item: `Cc1ccc(NC(=O)c2ccc(CN3CCN(C)CC3)cc2)cc1Oc1ccc(-c2[nH]nc3ncnc(N)c23)cc1`
inactive

Identify the outcome logged in this assay for the compound shown: `O=c1c2ccccc2nc(COc2ccccc2)n1NS(=O)(=O)c1ccc(Cl)cc1`
inactive

How was `CC1(C)CC[C@]23CC[C@]4(C)[C@H](CC[C@@H]5[C@@]6(C)CCCN(CO)C(C)(C)[C@@H]6CC[C@]54C)[C@H]2[C@H]1OC3` classified in this test?
inactive

Call for entry `CNC(=O)c1cc(-n2ccc3cc(NC(=O)Nc4ccc(N5CCOCC5)c(C(F)(F)F)c4)ccc32)ccn1` :
inactive

Check the results log: what was the call for `Nc1cc(-c2c[nH]c3ccc(Br)cc23)nc2cc(-c3c[nH]c4ccc(Br)cc34)nn12` ?
inactive

How did this test come out for `O=S(=O)(NCCCNc1nccc(-c2[nH]c(-c3ccccc3)nc2-c2ccc(Cl)c(O)c2)n1)c1ccc(Br)cc1` ?
inactive

What outcome does the record of this test show for Cc1cc(C)c(N2C(=O)CC(Nc3ccc(Cl)cc3Cl)C2=O)c(C)c1 (stereo not drawn) ?
inactive
